measured-target: CD28 (human) (UniProt P10747)
protocol-notes: flow cytometry, Expi293F cells transfected with CD28
Below is a list of entries, each paired with its recorded MFI value.

binder	MFI, MFI
CD80 K36G/K37Q/M38I/L40M ECD-Fc (Fc fusion) VIHVTKEVKEVATLSCGHNVSVEELAQTRIYWQKEGQIVMTMMSGDMNIWPEYKNRTIFDITNNLSIVILALRPSDEGTYECVVLKYEKDAFKREHLAEVTLSVKADFPTPSISDFEIPTSNIRRIICSTSGGFPEPHLSWLENGEELNAINTTVSQDPETELYAVSSKLDFNMTTNHSFMCLIKYGHLRVNQTFNWNTTKQEHFPDN	1170
CD80 K37E/F59S/L70Q/A91G/T120S/T130A ECD-Fc (SEQ ID NO 1397) (Fc fusion) VIHVTKEVKEVATLSCGHNVSVEELAQTRIYWQKEKEMVLTMMSGDMNIWPEYKNRTISDITNNLSIVIQALRPSDEGTYECVVLKYEKDGFKREHLAEVTLSVKADFPTPSISDFEVPSSNIRRIICSASGGFPEPHLSWLENGEELNAINTTVSQDPETELYAVSSKLDFNMTTNHSFMCLIEYGHLRVNQTFNWNTTKQEHFPDN	20
CD80 A91G/L102S ECD-Fc (Fc fusion) VIHVTKEVKEVATLSCGHNVSVEELAQTRIYWQKEKKMVLTMMSGDMNIWPEYKNRTIFDITNNLSIVILALRPSDEGTYECVVLKYEKDGFKREHLAEVTSSVKADFPTPSISDFEIPTSNIRRIICSTSGGFPEPHLSWLENGEELNAINTTVSQDPETELYAVSSKLDFNMTTNHSFMCLIKYGHLRVNQTFNWNTTKQEHFPDN	6
CD80 A91G/S103P ECD-Fc (Fc fusion) VIHVTKEVKEVATLSCGHNVSVEELAQTRIYWQKEKKMVLTMMSGDMNIWPEYKNRTIFDITNNLSIVILALRPSDEGTYECVVLKYEKDGFKREHLAEVTLPVKADFPTPSISDFEIPTSNIRRIICSTSGGFPEPHLSWLENGEELNAINTTVSQDPETELYAVSSKLDFNMTTNHSFMCLIKYGHLRVNQTFNWNTTKQEHFPDN	39
CD80 A91G/F92L/F108L/I118V/T120S ECD-Fc (Fc fusion) VIHVTKEVKEVATLSCGHNVSVEELAQTRIYWQKEKKMVLTMMSGDMNIWPEYKNRTIFDITNNLSIVILALRPSDEGTYECVVLKYEKDGLKREHLAEVTLSVKADLPTPSISDFEVPSSNIRRIICSTSGGFPEPHLSWLENGEELNAINTTVSQDPETELYAVSSKLDFNMTTNHSFMCLIKYGHLRVNQTFNWNTTKQEHFPDN	50
CD80 I67F/L70R/E88G/A91G/I118V/T120S/T130A ECD-Fc (Fc fusion) VIHVTKEVKEVATLSCGHNVSVEELAQTRIYWQKEKKMVLTMMSGDMNIWPEYKNRTIFDITNNLSFVIRALRPSDEGTYECVVLKYGKDGFKREHLAEVTLSVKADFPTPSISDFEVPSSNIRRIICSASGGFPEPHLSWLENGEELNAINTTVSQDPETELYAVSSKLDFNMTTNHSFMCLIKYGHLRVNQTFNWNTTKQEHFPDN	5
